Target: PDEδ (Homo sapiens (Human), UniProt O43924)
Test: Fluorescence polarization competition binding assay: displacement titration of labeled Atorvastatin probe for KD
Conditions: fluorescence polarization assay; activity classes; read-out: KD
pKd: −log10 of the molar value.
Known pKd of a selection of compounds

compound: O=S(=O)(c1ccc(S(=O)(=O)N(Cc2ccc(F)cc2)CC2CCCO2)cc1)N1CCCCC1 (stereo not drawn) [Compound 80]
data.value: 7.00 to 7.52

# pKd lookup, item O=S(=O)(c1ccc(S(=O)(=O)N(Cc2ccccc2)CC2CCNCC2)cc1)N(Cc1ccccc1)CC1CCNCC1 [Compound 18]
6.00 to 7.00

Same question, O=S(=O)(NC1CCCC1)c1ccc(S(=O)(=O)N(Cc2ccc(F)cc2)Cc2ccc(F)cc2)cc1 [Compound 93] this time
6.00 to 7.00

Same question, O=S(=O)(NCc1ccccc1)c1ccc(S(=O)(=O)N(Cc2ccc(Cl)cc2)C2CCCC2)cc1 [Compound 13] this time
7.00 to 7.52

Same question, CCOc1ccccc1CN(Cc1ccco1)S(=O)(=O)c1ccc(S(=O)(=O)N(CC)C2CCCCC2)cc1 [Compound 89] this time
7.52 to 9.00

Same question, O=S(=O)(NCC1CCNCC1)c1ccc(S(=O)(=O)N(Cc2ccc(Cl)cc2)C2CCCC2)cc1 [Compound 45] this time
7.52 to 9.00
